Recorded values, source patent US5985968A.

test: Dynamic surface tension of aqueous solutions, maximum-bubble-pressure method; type: physicochemical; conditions: saturated (<0.1 wt %), 6 b/s, about 23° C.
property: Dynamic Surface Tension (dyne/cm)

CCCCNC(=O)NCCCC [N,N'-Di-n-butylurea, N,N'-di-n-butylurea, reference compound]: 60.2
CCCCCCCCN(CCCCCCCC)C(N)=O [N,N-Di-n-octylurea, N,N-di-n-octylurea, reference compound]: 71.1
CCCCCCN(CCCCCC)C(N)=O [N,N-Di-n-hexylurea, N,N-di-n-hexylurea]: 56.8
CCCCC(CC)CN(CC(CC)CCCC)C(N)=O (stereo not shown) [N,N-Di-(2-ethylhexyl)urea, N,N-di-(2-ethylhexyl)urea, reference compound]: 69.6

----------
experiment: Dynamic surface tension of aqueous solutions, maximum-bubble-pressure method; type: physicochemical; settings: saturated (<0.1 wt %), 1 b/s, about 23° C.
property: Dynamic Surface Tension (dyne/cm)

Guide cases for Dynamic Surface Tension, answers given:
CCCCC(CC)CN(CC(CC)CCCC)C(N)=O (stereo not shown) [N,N-Di-(2-ethylhexyl)urea, N,N-di-(2-ethylhexyl)urea, reference compound]: 69.2
CCCCNC(=O)NCCCC [N,N'-Di-n-butylurea, N,N'-di-n-butylurea, reference compound]: 59.6

[P] CCCCCCCCN(CCCCCCCC)C(N)=O [N,N-Di-n-octylurea, N,N-di-n-octylurea, reference compound]
[Q] CCCCCCN(CCCCCC)C(N)=O
**Q:** I would appreciate it if you could say which entry, P or Q , has the lower Dynamic Surface Tension value. Your answer should be the label attached to the chosen record.
**A:** Q
(Q: 42.8 dyne/cm, P: 69.8 dyne/cm)

----------
test: Dynamic surface tension of aqueous solutions, maximum-bubble-pressure method; type: physicochemical; settings: saturated (<0.1 wt %), 15 b/s, about 23° C.
property: Dynamic Surface Tension (dyne/cm)

CCCCNC(=O)NCCCC [N,N'-Di-n-butylurea, N,N'-di-n-butylurea, reference compound]: 60.6
CCCCCCN(CCCCCC)C(N)=O: 63.7
CCCCC(CC)CN(CC(CC)CCCC)C(N)=O (stereo not shown) [N,N-Di-(2-ethylhexyl)urea, N,N-di-(2-ethylhexyl)urea, reference compound]: 69.3
CCCCCCCCN(CCCCCCCC)C(N)=O [N,N-Di-n-octylurea, N,N-di-n-octylurea, reference compound]: 70.3

----------
experiment: Solubility in water (saturated solution / solubility limit); assay type: physicochemical; conditions: in water
property: solubility (µg/mL)
Give the value, in units of µg/mL, as a plain number.

**Q:** Output solubility of CCCCCCCCNC(N)=O
**A:** 100

----------
experiment: Dynamic surface tension of aqueous solutions, maximum-bubble-pressure method; format: physicochemical; settings: saturated (<0.1 wt %), 0.1 b/s, about 23° C.
property: Dynamic Surface Tension (dyne/cm)

Guide cases for Dynamic Surface Tension, answers given:
CCCCCCCCN(CCCCCCCC)C(N)=O [N,N-Di-n-octylurea, N,N-di-n-octylurea, reference compound]: 52.9
CCCCC(CC)CN(CC(CC)CCCC)C(N)=O (stereo not shown) [N,N-Di-(2-ethylhexyl)urea, N,N-di-(2-ethylhexyl)urea, reference compound]: 60.1

[A] CCCCNC(=O)NCCCC [N,N'-Di-n-butylurea, N,N'-di-n-butylurea, reference compound]
[B] CCCCCCN(CCCCCC)C(N)=O
**Q:** I would appreciate it if you could say which entry, A or B , has the lower Dynamic Surface Tension value. Your answer should be the label attached to the chosen record.
**A:** B
(B: 34.7 dyne/cm, A: 59.0 dyne/cm)

----------
assay: Dynamic surface tension of aqueous solutions, maximum-bubble-pressure method; assay type: physicochemical; settings: saturated (<0.1 wt %), 20 b/s, about 23° C.
property: Dynamic Surface Tension (dyne/cm)

CCCCCCCCN(CCCCCCCC)C(N)=O [N,N-Di-n-octylurea, N,N-di-n-octylurea, reference compound]: 69.4
CCCCCCN(CCCCCC)C(N)=O: 62.4
CCCCC(CC)CN(CC(CC)CCCC)C(N)=O (stereo not shown) [N,N-Di-(2-ethylhexyl)urea, N,N-di-(2-ethylhexyl)urea, reference compound]: 68.1
CCCCNC(=O)NCCCC [N,N'-Di-n-butylurea, N,N'-di-n-butylurea, reference compound]: 60.9
